- target.desc: PCSK9 (Homo sapiens, UniProt Q8NBP7, G670E/V474I)
- assay.overview: cell-based
- Sequence (Q8NBP7 31-152): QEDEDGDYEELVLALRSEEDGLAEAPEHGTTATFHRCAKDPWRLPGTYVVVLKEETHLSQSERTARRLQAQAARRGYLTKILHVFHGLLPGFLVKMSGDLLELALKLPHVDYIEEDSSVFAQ
- Sequence (Q8NBP7 153-692 V474I/G670E): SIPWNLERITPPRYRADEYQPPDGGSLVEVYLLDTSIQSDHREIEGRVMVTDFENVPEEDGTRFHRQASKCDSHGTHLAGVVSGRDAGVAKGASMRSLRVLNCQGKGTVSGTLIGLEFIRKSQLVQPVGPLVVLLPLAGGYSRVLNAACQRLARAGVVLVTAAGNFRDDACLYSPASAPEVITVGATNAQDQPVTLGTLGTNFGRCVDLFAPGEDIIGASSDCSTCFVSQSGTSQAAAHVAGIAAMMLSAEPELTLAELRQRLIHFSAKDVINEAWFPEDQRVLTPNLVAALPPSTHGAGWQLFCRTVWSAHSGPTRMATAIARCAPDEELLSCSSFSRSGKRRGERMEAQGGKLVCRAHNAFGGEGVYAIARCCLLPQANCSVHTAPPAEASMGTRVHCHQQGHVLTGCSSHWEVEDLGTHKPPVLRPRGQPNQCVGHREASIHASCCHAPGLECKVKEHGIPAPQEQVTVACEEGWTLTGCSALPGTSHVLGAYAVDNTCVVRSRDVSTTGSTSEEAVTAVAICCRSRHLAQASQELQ
endpoint: IC50 (nM)
Give bare numbers, in nM.

[
  {
    "structure": "O=c1c(Cl)cccn1-c1ccc(N[C@H]2CC[C@H](Nc3nc4cccnc4o3)C2)nc1",
    "IC50 / nM": 81
  },
  {
    "structure": "O=c1ccc(OC(F)F)cn1-c1ccc(N[C@H]2CC[C@H](Nc3nc4cccnc4s3)C2)nc1",
    "IC50 / nM": 204
  },
  {
    "structure": "O=c1c(Cl)cccn1-c1ccc(N[C@H]2CC[C@H](Nc3nc4cccnc4s3)C2)nc1",
    "IC50 / nM": 76
  },
  {
    "structure": "O=c1ccccn1-c1ccc(N[C@H]2CC[C@H](Nc3nc4cc(Br)cnc4s3)C2)nc1",
    "IC50 / nM": 410
  },
  {
    "structure": "O=c1c(OC(F)(F)F)cccn1-c1ccc(N[C@H]2CC[C@H](Nc3nc4cccnc4[nH]3)C2)nc1",
    "IC50 / nM": 51
  }
]

Give measured IC50 for every item shown.
1. Cc1cnc2[nH]c(N[C@H]3CC[C@H](Nc4ccc(-n5ccccc5=O)cn4)C3)nc2c1
2. COc1ccc(=O)n(-c2ccc(N[C@H]3CC[C@H](Nc4nc5cccnc5s4)C3)nc2)c1

Result string:
1: 43; 2: 51

Give measured IC50 for every item shown.
1. O=c1ccccn1-c1ccc(N[C@H]2CC[C@H](Nc3nc4cc(CO)cnc4[nH]3)C2)nc1
2. O=c1ccccn1-c1ccc(N[C@H]2CC[C@H](Nc3nc4cccnc4s3)C2)nc1

Result string:
1. 100
2. 157

====

- target.desc: PCSK9 (Homo sapiens, UniProt Q8NBP7, G670E/V474I)
- assay.overview: biochemical
- Sequence (Q8NBP7 with tags, fused parts or gaps V474I/G670E): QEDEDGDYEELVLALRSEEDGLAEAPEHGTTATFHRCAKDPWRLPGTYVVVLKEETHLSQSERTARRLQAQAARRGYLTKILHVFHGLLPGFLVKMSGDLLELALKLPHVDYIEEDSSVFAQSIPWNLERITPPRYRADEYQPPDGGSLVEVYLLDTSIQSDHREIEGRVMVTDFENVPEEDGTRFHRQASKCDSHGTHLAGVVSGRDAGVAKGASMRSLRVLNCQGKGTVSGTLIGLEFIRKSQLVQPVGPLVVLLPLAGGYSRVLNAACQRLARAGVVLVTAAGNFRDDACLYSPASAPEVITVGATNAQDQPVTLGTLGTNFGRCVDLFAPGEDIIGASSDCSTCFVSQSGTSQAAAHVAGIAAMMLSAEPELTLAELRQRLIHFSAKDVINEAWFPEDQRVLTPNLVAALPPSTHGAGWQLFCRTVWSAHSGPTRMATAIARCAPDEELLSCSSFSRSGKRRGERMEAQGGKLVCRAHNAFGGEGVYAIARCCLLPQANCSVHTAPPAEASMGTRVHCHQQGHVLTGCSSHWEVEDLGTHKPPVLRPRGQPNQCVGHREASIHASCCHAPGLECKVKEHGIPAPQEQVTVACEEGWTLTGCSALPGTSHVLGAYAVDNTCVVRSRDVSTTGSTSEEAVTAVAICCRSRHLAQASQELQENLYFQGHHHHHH
Exercise: for every item that follows, state its recorded IC50.
Answers are plain numbers, in nM.

[
  {
    "structure": "O=c1cccnn1-c1ccc(N[C@H]2CC[C@H](Nc3nc4cccnc4[nH]3)C2)nc1",
    "target.desc": "PCSK9 (Homo sapiens, UniProt Q8NBP7, G670E/V474I)",
    "value.observed": 5.7
  },
  {
    "structure": "N#Cc1ccc2sc(N[C@H]3CC[C@H](Nc4ccc(-n5ccccc5=O)cn4)C3)nc2c1",
    "target.desc": "PCSK9 (Homo sapiens, UniProt Q8NBP7, G670E/V474I)",
    "value.observed": 17.9
  },
  {
    "structure": "N#Cc1cccn(-c2ccc(N[C@H]3CC[C@H](Nc4nc5cccnc5s4)C3)nc2)c1=O",
    "target.desc": "PCSK9 (Homo sapiens, UniProt Q8NBP7, G670E/V474I)",
    "value.observed": 1.2
  }
]

Give measured IC50 for every item shown.
1. O=c1ccccn1-c1ccc(N[C@H]2CC[C@H](Nc3nc4cc(Cl)cnc4[nH]3)C2)nc1
2. O=c1ccccn1-c1ccc(N[C@H]2CC[C@H](Nc3nc4nccnc4[nH]3)C2)nc1
3. COc1ccc(=O)n(-c2ccc(N[C@H]3CC[C@H](Nc4nc5cccnc5o4)C3)nc2)c1
4. Cc1cnc2[nH]c(N[C@H]3CC[C@H](Nc4ccc(-n5ccccc5=O)cn4)C3)nc2c1
5. N#Cc1ccc(=O)n(-c2ccc(N[C@H]3CC[C@H](Nc4nc5cccnc5[nH]4)C3)nc2)c1

Result string:
[1.6, 5.1, 25.5, 2.8, 4.2]
